Each item that follows carries a reported pIC50.
TARGET: CDK4/CyclinD1 (Homo sapiens)
Sequence (P11802 whole entry, species assumed): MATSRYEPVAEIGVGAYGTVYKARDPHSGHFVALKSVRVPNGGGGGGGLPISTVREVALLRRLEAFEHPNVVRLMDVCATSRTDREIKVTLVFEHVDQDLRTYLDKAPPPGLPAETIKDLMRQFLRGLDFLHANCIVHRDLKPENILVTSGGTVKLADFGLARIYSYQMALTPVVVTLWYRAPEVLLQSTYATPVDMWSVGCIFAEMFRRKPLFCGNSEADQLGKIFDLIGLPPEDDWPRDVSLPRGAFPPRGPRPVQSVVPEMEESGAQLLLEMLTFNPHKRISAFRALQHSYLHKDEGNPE
Sequence (P24385 whole entry partner, species assumed): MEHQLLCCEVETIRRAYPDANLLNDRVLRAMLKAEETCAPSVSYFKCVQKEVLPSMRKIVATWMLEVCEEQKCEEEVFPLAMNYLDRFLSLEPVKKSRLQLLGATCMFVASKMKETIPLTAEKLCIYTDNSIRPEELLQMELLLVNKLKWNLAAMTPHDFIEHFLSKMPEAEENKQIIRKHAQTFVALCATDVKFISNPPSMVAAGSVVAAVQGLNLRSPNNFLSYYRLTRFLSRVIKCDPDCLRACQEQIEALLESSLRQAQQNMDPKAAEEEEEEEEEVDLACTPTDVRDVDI
MEASUREMENT NOTES: CDK4/cyclinD1 kinase assay (Nanosyn, Caliper microfluidic kinase detection)
Assay type: biochemical
PARTICULARS: Table 2; 12-point dose-response, ATP at Km (200 μM), 10 hr; read-out: CDK4/CycD1 IC50
pIC50: −log10 of the molar value.
MEASURED METRIC: pIC50

| COMPOUND | MEASURED |
| --- | --- |
| CN1CCN(c2ccc(Nc3ncc4cc5n(c4n3)C3(CCCC3)CNC5=O)nc2)CC1 [ZZ] | 7.98 |
| C[C@H](O)CN1CCN(c2ccc(Nc3ncc4cc5n(c4n3)C3(CCCC3)CNC5=O)nc2)C[C@H]1C [XX] | 8.89 |
| C[C@H](O)CN1CCN(c2ccc(Nc3ncc4cc5n(c4n3)C3(CCCCC3)CNC5=O)nc2)C[C@@H]1C [C] | 8.85 |
| CC1(C)CN(c2ccc(Nc3ncc4cc5n(c4n3)C3(CCCCC3)CNC5=O)nc2)CCN1CC1CC1 [H] | 8.82 |
| O=C1NCC2(CCCC2)n2c1cc1cnc(Nc3ccc(N4CCOCC4)nn3)nc12 [SSS] | 8.70 |
| CC(C)N1CCN(c2ccc(Nc3ncc4cc5n(c4n3)C3(CCCC3)CNC5=O)nn2)CC1 [RRR] | 8.59 |
| CC1(C)CN(c2ccc(Nc3ncc4cc5n(c4n3)C3(CCCCC3)CNC5=O)nc2)CCN1C1CC1 [BB] | 9.10 |
| CC(C)C[C@@H]1CNC(=O)c2cc3cnc(Nc4ccc(N5CCNCC5)cn4)nc3n21 [WWW] | 7.73 |
